Biological target: human MMP14 (Homo sapiens (Human))
VALUE KIND: IC50

Guide cases for IC50, answers given:
Cc1ccc(F)cc1N1CCN(C(=O)CCC2(C)NC(=O)NC2=O)CC1 (stereo not shown)	> 20 µM
CC(CC1(C)NC(=O)NC1=O)C(=O)N1CCN(c2cccc(F)c2)[C@@H](C)C1 (stereo partly shown)	2.6 µM
O=C1NC(=O)C(CCC(=O)N2CCN(c3cc(Cl)cc(Cl)c3)CC2)(C2CC2)N1 (stereo not shown)	> 20 µM

IC50 in this record for CC(CC1(C2CC2)NC(=O)NC1=O)C(=O)N1CCN(c2cncc(F)c2)[C@@H](C)C1 (stereo partly shown) : > 20 µM

====

Biological target: human TACE (Homo sapiens (Human))
Sequence (P78536 whole entry, looked up, change not shown): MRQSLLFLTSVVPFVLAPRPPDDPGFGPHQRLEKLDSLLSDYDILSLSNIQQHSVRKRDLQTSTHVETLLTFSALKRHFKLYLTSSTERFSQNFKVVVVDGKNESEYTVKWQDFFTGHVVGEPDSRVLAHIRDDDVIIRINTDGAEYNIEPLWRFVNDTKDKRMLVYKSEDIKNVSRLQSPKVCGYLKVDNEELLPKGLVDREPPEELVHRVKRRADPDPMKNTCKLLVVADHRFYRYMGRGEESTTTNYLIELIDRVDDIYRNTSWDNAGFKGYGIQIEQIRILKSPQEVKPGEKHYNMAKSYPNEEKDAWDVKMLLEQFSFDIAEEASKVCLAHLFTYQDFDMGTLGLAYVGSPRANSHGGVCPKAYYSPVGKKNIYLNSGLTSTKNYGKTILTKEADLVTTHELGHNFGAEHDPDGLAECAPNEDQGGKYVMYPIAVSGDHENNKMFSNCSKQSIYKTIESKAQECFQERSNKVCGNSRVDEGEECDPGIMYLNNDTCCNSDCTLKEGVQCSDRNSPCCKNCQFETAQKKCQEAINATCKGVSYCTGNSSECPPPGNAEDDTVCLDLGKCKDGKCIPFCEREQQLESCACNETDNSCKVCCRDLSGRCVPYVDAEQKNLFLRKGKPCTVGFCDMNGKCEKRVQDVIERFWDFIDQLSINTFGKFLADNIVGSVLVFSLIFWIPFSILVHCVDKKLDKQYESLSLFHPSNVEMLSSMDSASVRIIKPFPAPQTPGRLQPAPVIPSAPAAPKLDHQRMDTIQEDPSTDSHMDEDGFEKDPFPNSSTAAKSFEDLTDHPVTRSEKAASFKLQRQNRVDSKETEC
Details: read-out: TACE potency IC50
pIC50: −log10 of the molar value.
Field: pIC50. Provide a value for each of the compounds that follow.

CC(C)(C)C1(CCC(=O)N2CCN(c3cccc(Cl)c3)CC2)NC(=O)NC1=O (centres unmarked)	< 5.40
COCCNC(=O)CC1(CCC(=O)N2CCN(c3cc(Cl)cc(Cl)c3)CC2)NC(=O)NC1=O (centres unmarked)	< 4.70
CC(CC1(C2CC2)NC(=O)NC1=O)C(=O)N1CCN(c2cncc(Cl)c2)[C@@H](C)C1 (some centres unmarked)	< 5.40
CC(C)C1(CCC(=O)N2CCN(c3cccc(Cl)c3)CC2)NC(=O)NC1=O (centres unmarked)	< 5.40
O=C1NC(=O)C(CC(O)C(=O)N2CCN(c3cc(Cl)cc(Cl)c3)CC2)(C2CC2)N1 (centres unmarked)	< 4.70
Cc1c(F)cccc1N1CCN(C(=O)CCC2(C3CC3)NC(=O)NC2=O)CC1 (centres unmarked)	< 4.83
CC1CN(C(=O)CCC2(c3ccccc3)NC(=O)NC2=O)CCN1c1ccccc1 (centres unmarked)	< 4.70

Please turn your attention to the following entry.
pIC50 in this record for COCC1(CC(C)C(=O)N2CCN(c3cccc(F)c3)[C@@H](C)C2)NC(=O)NC1=O (some centres unmarked) : < 5.40

====

Field: IC50. Provide a value for each of the compounds that follow.
Target: human TACE (Homo sapiens (Human))
Conditions: read-out: TACE potency IC50

Cc1ccc(F)cc1N1CCN(C(=O)CCC2(C)NC(=O)NC2=O)C[C@@H]1C (some centres unmarked)	> 4 µM
CN(C)CCC1(CCC(=O)N2CCN(c3cccc(Cl)c3)CC2)NC(=O)NC1=O (centres unmarked)	> 20 µM
Cc1ccc(Cl)cc1N1CCN(C(=O)CCC2(c3cccnc3)NC(=O)NC2=O)CC1 (centres unmarked)	0.137 µM
O=C1NC(=O)C(CCC(=O)N2CCN(c3cccc(F)c3)CC2)(c2ccccn2)N1 (centres unmarked)	4.1 µM
O=C1NC(=O)C(CCC(=O)N2CCN(c3cccc(Cl)c3)CC2)(C2CCC2)N1 (centres unmarked)	> 20 µM
Cc1cc(F)c(F)cc1N1CCN(C(=O)CCC2(C)NC(=O)NC2=O)CC1 (centres unmarked)	> 4 µM

For each listed entry, give its IC50.
1. CC(CC1(CCNC(=O)OC(C)(C)C)NC(=O)NC1=O)C(=O)N1CCN(c2ccc(F)c(F)c2)CC1 (centres unmarked)
2. C[C@H]1CN(C(=O)CCC2(C3CC3)NC(=O)NC2=O)CCN1c1cccc2c1ccn2C (some centres unmarked)

1. 1.32 µM
2. > 20 µM
